Would you kindly list kon for each of these binders?
# tested-system: T1, human CD19 antigen (human, UniProt P15391 20-291, limits assumed)
# T1 sequence (looked up): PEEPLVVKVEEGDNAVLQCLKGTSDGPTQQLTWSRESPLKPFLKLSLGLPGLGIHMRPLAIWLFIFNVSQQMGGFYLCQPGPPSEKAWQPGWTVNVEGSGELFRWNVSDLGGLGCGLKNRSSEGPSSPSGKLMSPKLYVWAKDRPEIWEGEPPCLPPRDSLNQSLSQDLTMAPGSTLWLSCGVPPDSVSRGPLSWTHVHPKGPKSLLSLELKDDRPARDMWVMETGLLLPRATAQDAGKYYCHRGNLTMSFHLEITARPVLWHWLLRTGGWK
# measurement-protocol: SPR (Biacore), antibody captured via Fc
# Experimental: Part of the antibodies in Example 1 were tested for affinity, and the composition of the heavy chain variable regions and the light chain variable regions of the antibodies to be tested are shown in Table 2. HEK293 cells were used to express the antibodies to be tested and Protein A was used for purification. The surface plasmon resonance technique (SPR) was used for determination, and the Fc capture method was used for antibody fixation.
Numbers only, in M⁻¹ s⁻¹.

Example entries and their recorded answers appear below.
>  <binder>
humanized CD19 antibody VH8 + VL5 (antibody, V domains shown) VH: QVKLQESGPGLVKPSETLSLTCTVSGVSLPDYGVSWIRQPPGKGLEWIGVIWGSETTYYNSALKSRVTISKDTSKSQVFLKLSSVTAADTAVYYCAKHYYYGGSYAMDYWGQGTLVTVSS VL: DIQMTQSPSSLSASVGDRVTISCRASQDISKYLNWYQQKPGKAPKLLIYHTSRLHSGVPSRFSGSGSGTDYTFTISSLQPEDIATYFCQQGNTLPYTFGGGTKLEIK

>  <kon, M⁻¹ s⁻¹>
155000

$$$$
>  <binder>
humanized CD19 antibody VH4 + VL6 (antibody, V domains shown) VH: QVQLQESGPGLVKPSQTLSLTCTVSGVSLPDYGVSWIRQPPGKGLEWLGVIWGSETTYYNSALKSRLTISKDTSKNQVSLKLSSVTAADTAVYYCAKHYYYGGSYAMDYWGQGTTVTVSS VL: DIQMTQSPSSLSASVGDRVTITCRASQDISKYLNWYQQKPGGAVKLLIYHTSRLHSGVPSRFSGSGSGTDYTFTISSLQPEDIATYFCQQGNTLPYTFGGGTKLEIK

>  <kon, M⁻¹ s⁻¹>
129000

$$$$

Here is another binder to look at.
// recorded kon for humanized CD19 antibody VH10 + VL5 (antibody, V domains shown) VH: QVKLQESGPGLVKPSETLSLTCTVSGVSLPDYGVSWIRQPPGKGLEWLGVIWGSETTYYNSALKSRLTISKDTSKSQVFLKLSSVTAADTAVYYCAKHYYYGGSYAMDYWGQGTLVTVSS VL: DIQMTQSPSSLSASVGDRVTISCRASQDISKYLNWYQQKPGKAPKLLIYHTSRLHSGVPSRFSGSGSGTDYTFTISSLQPEDIATYFCQQGNTLPYTFGGGTKLEIK : 118000
